# Test system: Strep. pyogenes L49 C203
# methodDescription: MIC broth dilution test, Strep. pyogenes
# Assay type: cell-based
# assaySetup: Todd-Hewitt broth, 24 h
valueKind: M.I.C. (microgram/ml)
Unit microgram/ml implied. Number only.

Query block: Please report M.I.C. for the following compound: CCC(C)CCCCCCC(=O)N[C@H]1[C@H](Oc2c3cc4cc2Oc2ccc(cc2Cl)C(O[C@@H]2O[C@H](CO)[C@@H](O)[C@H](O)[C@H]2NC(C)=O)C2NC(=O)C(NC(=O)C4NC(=O)C4NC(=O)C(Cc5ccc(c(Cl)c5)O3)NC(=O)C(N)c3ccc(O)c(c3)Oc3cc(O)cc4c3)c3ccc(O)c(c3)-c3c(O)cc(O)cc3C(C(=O)O)NC2=O)O[C@H](CO)[C@@H](O)[C@@H]1O (stereo partly shown)
Result block: 0.063
